- target: Human PKMYT1 (Homo sapiens, UniProt Q99640)
- Construct: Human PKMYT1 75-362 was cloned as a TEV cleavable 6xHis fusion; 6xHis (TEV cleavable) (cleaved yes); made in house; host or cells: bacterial cells
- Sequence (Q99640 75-362): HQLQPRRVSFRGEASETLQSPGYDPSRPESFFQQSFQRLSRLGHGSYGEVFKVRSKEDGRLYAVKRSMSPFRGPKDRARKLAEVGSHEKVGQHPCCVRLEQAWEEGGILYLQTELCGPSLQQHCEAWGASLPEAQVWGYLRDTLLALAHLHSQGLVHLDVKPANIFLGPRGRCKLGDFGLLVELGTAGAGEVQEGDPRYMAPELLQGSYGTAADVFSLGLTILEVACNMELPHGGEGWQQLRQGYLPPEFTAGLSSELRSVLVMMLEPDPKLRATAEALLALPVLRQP
- test.name: PKMYT1 biochemical ADP-Glo enzymatic assay
- reported.conditions: PKMYT1 kinase domain 15 nM; ADP-Glo; banded values
pIC50: −log10 of the molar value. Counter-ions that a name gives are not always drawn.
observation.type: pIC50

A selection of reference data follows.
INSERT INTO assay_data (compound, measured) VALUES
  ('Cc1ccc(O)c(C)c1NC(=O)c1cnc(Nc2nn(CC#N)cc2Br)s1 [BAA-586]', '> 7.30'),
  ('Cc1ccc(O)c(C)c1NC(=O)c1cnc(Nc2cccc(CC(=O)N(C3CC3)C3CC3)n2)s1 [BAA-427]', '> 7.30'),
  ('Cc1ccc(O)c(C)c1NC(=O)c1cnc(Nc2cc(C#N)n(C)n2)s1 [BAA-505]', '6.00 to 7.30');

Incoming: Please look at Cc1cn(CCF)nc1Nc1ncc(C(=O)Nc2c(C)ccc(O)c2C)s1 [BAA-470] and tell me its recorded pIC50 on Human PKMYT1 (Homo sapiens, UniProt Q99640).
Outgoing: > 7.30

Incoming: Please look at COc1cnc(Cl)nc1Nc1ncc(C(=O)Nc2c(C)ccc(O)c2C)s1 [BAA-568] and tell me its recorded pIC50 on Human PKMYT1 (Homo sapiens, UniProt Q99640).
Outgoing: > 7.30

Incoming: Please look at Cc1ccc(O)c(C)c1NC(=O)c1cnc(Nc2ncccc2C#N)s1 [BAA-408] and tell me its recorded pIC50 on Human PKMYT1 (Homo sapiens, UniProt Q99640).
Outgoing: 6.00 to 7.30

Incoming: Please look at Cc1ccc(O)c(C)c1NC(=O)c1cnc(Nc2cnn(C)c2)s1 [BAA-536, hydrochloride] and tell me its recorded pIC50 on Human PKMYT1 (Homo sapiens, UniProt Q99640).
Outgoing: 6.00 to 7.30

Incoming: Please look at Cc1ccc(O)c(C)c1NC(=O)c1cnc(Nc2nn(CCF)cc2Br)s1 [BAA-585] and tell me its recorded pIC50 on Human PKMYT1 (Homo sapiens, UniProt Q99640).
Outgoing: > 7.30
